Property: binding signal; scope: individual binders
Target: ZFPm3 six-finger zinc finger protein (Sp1C framework) (artificial)
Sequence (chain, as listed by the source): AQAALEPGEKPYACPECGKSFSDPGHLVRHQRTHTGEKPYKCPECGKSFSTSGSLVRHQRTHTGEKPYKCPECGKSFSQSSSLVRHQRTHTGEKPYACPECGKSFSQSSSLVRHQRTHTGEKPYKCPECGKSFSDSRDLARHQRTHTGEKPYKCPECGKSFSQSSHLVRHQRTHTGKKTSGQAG
Test: ELISA, 1.9 ug/ml protein, non-target
Conditions: tags: MBP fusion (pMAL-C2), E. coli; label: 5'-biotin; hairpin
Quick reminder: number only, in fold over no oligo, skip the unit.

Solved cases below.
GGCTCTGCTCATCCCACTACGGGTTTTCCCGTAGTGGGATGAGCAGAGCC (dsDNA) [c5p3-g]
3
GGGACACCCCCAACCCCGCCGGGTTTTCCCGGCGGGGTTGGGGGTGTCCC (dsDNA) [c5c1-g]
3
GGGGCCCCGCCTCCGCCGGCGGGTTTTCCCGCCGGCGGAGGCGGGGCCCC (dsDNA) [hHD-I]
1
GGTGCGGCGACTGCAGCAGCGGGTTTTCCCGCTGCTGCAGTCGCCGCACC (dsDNA) [NRI-2]
6

Please find the next binder below.
Lookup: Form field: reported binding signal of GGCACTGCGGCTCCGGCCCCGGGTTTTCCCGGGGCCGGAGCCGCAGTGCC (dsDNA) [e2c-g]
Found: 9

// provenance: patent US20030037355
